The values you see were collected from the supplement of paper PMC11208160.

procedure.text: recombinant UMI read abundance after kanamycin selection (control-corrected) (log10(CPM+1)); higher = more efficient recombination; extreme values may be limits of the assay; sequences stand for … in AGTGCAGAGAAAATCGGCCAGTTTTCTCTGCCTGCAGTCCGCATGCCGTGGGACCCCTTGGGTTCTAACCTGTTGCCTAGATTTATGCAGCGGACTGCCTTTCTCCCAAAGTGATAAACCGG…AGGTTGGTTTCACT; site = the 11-nt donor;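 further: IS621 bridge recombinase in Escherichia coli cells against a fixed T5 target plasmid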
Consider the following sequences and their measured recombinant UMI read abundance (log10) readings.
Give your answer as a number; write no unit.

Example entries begin here.
| sequence.chain | recombinant UMI read abundance (log10) |
| --- | --- |
| CCAAAAGCATGGACCGGTTTTCCCGGTAATCCGTATTTGAT (site CCCAAAGCTAT) | 0 |
| AACACACCATGGACCGGTTTTCCCGGTAATCCGTATTTGAC (site AACACACCTGT) | 0 |
| CAGTCTACATGGACCGGTTTTCCCGGTAATCCGTATTTGGG (site CAGTCCACTCC) | 0.0106 |
| ACAATATCATGGACCGGTTTTCCCGGTAATCCGTATTTGCA (site ACAATATCTTG) | 2.85 |
| CATTGCCCATGGACCGGTTTTCCCGGTAATCCGTATTTGAC (site CATTGCCCTGT) | 0.844 |
| ACGTAGGCATGGACCGGTTTTCCCGGTAATCCGTATTTGGC (site AAGTAGGCTGC) | 1.32 |

Query: State the recorded recombinant UMI read abundance (log10) for this entry: TTATTACCATGGACCGGTTTTCCCGGTAATCCGTATTTGAG (site TTATTACCTCT)
Response: 0.00691
